# measured on: HLA-B*15:01
# experimental details: IEDB peptide-MHC binding, purified MHC/direct/fluorescence; filed as Kd, often an IC50 or EC50 that approximates it; bounds were set here for any values at or beyond the usual limits of such assays
# particulars: source organism: Salmonella enterica subsp. enterica serovar Typhimurium
measure name: Kd

Please look up its Kd: `LAMLVLHQV`
≥ 20 µM

* * *

# measured on: HLA-B*58:01
# experimental details: IEDB peptide-MHC binding, purified MHC/competitive/radioactivity; filed as Kd, often an IC50 or EC50 that approximates it; bounds were set here for any values at or beyond the usual limits of such assays
# particulars: source organism: Dengue virus 2 Peru/IQT2913/1996
measure name: Kd

Reported Kd for HLA-B*58:01, given `ESWEEIPYLG` ?
90.3 nM

* * *

# measured on: HLA-B*46:01
# experimental details: IEDB peptide-MHC binding, purified MHC/competitive/fluorescence; filed as Kd, often an IC50 or EC50 that approximates it; bounds were set here for any values at or beyond the usual limits of such assays
# particulars: source organism: Homo sapiens
pKd: −log10 of the molar value.
measure name: pKd

{"residues": "VLIRRCHYL", "pKd": "≤ 4.70"}

Next sequence, pKd to be filled in.
Please look up its pKd: `VSDFRKEFY`
≤ 4.70

* * *

# measured on: HLA-A*02:16
# experimental details: IEDB peptide-MHC binding, purified MHC/competitive/fluorescence; filed as Kd, often an IC50 or EC50 that approximates it; bounds were set here for any values at or beyond the usual limits of such assays
# particulars: source organism: Campylobacter jejuni subsp. jejuni NCTC 11168 = ATCC 700819
measure name: Kd

Please look up its Kd: `KGMKIQHFK`
≥ 20 µM

* * *

# measured on: HLA-A*31:01
# experimental details: IEDB peptide-MHC binding, purified MHC/direct/fluorescence; filed as Kd, often an IC50 or EC50 that approximates it; bounds were set here for any values at or beyond the usual limits of such assays
# particulars: source organism: Aggregatibacter actinomycetemcomitans
measure name: pKd
A value of pKd is the negative decimal logarithm of a concentration given in moles per litre.

Please look up its pKd: `TTRAWFDKK`
7.22

* * *

# measured on: HLA-A*02:01
# experimental details: IEDB peptide-MHC binding, purified MHC/direct/fluorescence; filed as Kd, often an IC50 or EC50 that approximates it; bounds were set here for any values at or beyond the usual limits of such assays
# particulars: source organism: Brucella suis
pKd: −log10 of the molar value.
measure name: pKd

Please look up its pKd: `MRDGGSATV`
≤ 4.70

* * *

# measured on: HLA-B*27:03
# experimental details: IEDB peptide-MHC binding, purified MHC/direct/fluorescence; filed as Kd, often an IC50 or EC50 that approximates it; bounds were set here for any values at or beyond the usual limits of such assays
# particulars: source organism: Salmonella enterica subsp. enterica serovar Typhimurium
pKd: −log10 of the molar value.
measure name: pKd

Please look up its pKd: `LAMLVLHQV`
≤ 4.70

* * *

# measured on: HLA-A*24:03
# experimental details: IEDB peptide-MHC binding, purified MHC/direct/fluorescence; filed as Kd, often an IC50 or EC50 that approximates it; bounds were set here for any values at or beyond the usual limits of such assays
# particulars: source organism: Oran virus
measure name: Kd

Please look up its Kd: `KPKALSEAF`
≥ 20 µM

* * *

# measured on: HLA-A*26:01
# experimental details: IEDB peptide-MHC binding, purified MHC/direct/fluorescence; filed as Kd, often an IC50 or EC50 that approximates it; bounds were set here for any values at or beyond the usual limits of such assays
# particulars: source organism: Mycobacterium tuberculosis
measure name: Kd (nM)
The figure you give is taken to be in nM; do not add the unit.

Please look up its Kd: `DTIYPTAIY`
3

* * *

# measured on: HLA-B*08:01
# experimental details: IEDB peptide-MHC binding, purified MHC/direct/fluorescence; filed as Kd, often an IC50 or EC50 that approximates it; bounds were set here for any values at or beyond the usual limits of such assays
# particulars: source organism: Vibrio cholerae
pKd: −log10 of the molar value.
measure name: pKd

{"residues": "WAGIWGGKL", "result": "≤ 4.70"}

Next sequence, pKd to be filled in.
Please look up its pKd: `ALYWALMES`
≤ 4.70

* * *

# measured on: HLA-A*02:01
# experimental details: IEDB peptide-MHC binding, purified MHC/competitive/fluorescence; filed as Kd, often an IC50 or EC50 that approximates it; bounds were set here for any values at or beyond the usual limits of such assays
# particulars: source organism: Burkholderia pseudomallei K96243
measure name: Kd

Reported Kd for HLA-A*02:01, given `DELWRGLLA` ?
≥ 20 µM

* * *

# measured on: HLA-B*08:01
# experimental details: IEDB peptide-MHC binding, purified MHC/direct/fluorescence; filed as Kd, often an IC50 or EC50 that approximates it; bounds were set here for any values at or beyond the usual limits of such assays
# particulars: source organism: Variola virus
measure name: Kd

Please look up its Kd: `YHRFGLYRL`
≥ 20 µM

* * *

# measured on: HLA-B*07:02
# experimental details: IEDB peptide-MHC binding, purified MHC/direct/fluorescence; filed as Kd, often an IC50 or EC50 that approximates it; bounds were set here for any values at or beyond the usual limits of such assays
# particulars: source organism: Burkholderia mallei ATCC 23344
measure name: Kd

Please look up its Kd: `MMYASWGVH`
≥ 20 µM

* * *

# measured on: HLA-A*29:02
# experimental details: IEDB peptide-MHC binding, purified MHC/direct/fluorescence; filed as Kd, often an IC50 or EC50 that approximates it; bounds were set here for any values at or beyond the usual limits of such assays
# particulars: source organism: Oran virus
measure name: Kd

Please look up its Kd: `KPKALSEAF`
≥ 20 µM

* * *

# measured on: HLA-C*04:01
# experimental details: IEDB peptide-MHC binding, purified MHC/direct/fluorescence; filed as Kd, often an IC50 or EC50 that approximates it; bounds were set here for any values at or beyond the usual limits of such assays
# particulars: source organism: Bacillus anthracis str. A0193
pKd: −log10 of the molar value.
measure name: pKd

Please look up its pKd: `YAIYTLGEM`
≤ 4.70

* * *

# measured on: HLA-A*31:01
# experimental details: IEDB peptide-MHC binding, purified MHC/direct/fluorescence; filed as Kd, often an IC50 or EC50 that approximates it; bounds were set here for any values at or beyond the usual limits of such assays
# particulars: source organism: Yellow fever virus strain Ghana/Asibi/1927
measure name: Kd

Please look up its Kd: `AIHPFALLL`
≥ 20 µM

* * *

# measured on: HLA-B*46:01
# experimental details: IEDB peptide-MHC binding, purified MHC/direct/fluorescence; filed as Kd, often an IC50 or EC50 that approximates it; bounds were set here for any values at or beyond the usual limits of such assays
# particulars: source organism: Vibrio parahaemolyticus
pKd: −log10 of the molar value.
measure name: pKd

Please look up its pKd: `VQGYERIMY`
≤ 4.70

* * *

# measured on: HLA-A*02:01
# experimental details: IEDB peptide-MHC binding, purified MHC/direct/fluorescence; filed as Kd, often an IC50 or EC50 that approximates it; bounds were set here for any values at or beyond the usual limits of such assays
# particulars: source organism: Encephalitozoon cuniculi GB-M1
measure name: Kd

Please look up its Kd: `MPFDPSELV`
≥ 20 µM

* * *

# measured on: HLA-A*30:02
# experimental details: IEDB peptide-MHC binding, purified MHC/competitive/radioactivity; filed as Kd, often an IC50 or EC50 that approximates it; bounds were set here for any values at or beyond the usual limits of such assays
# particulars: source organism: Mammarenavirus brazilense
measure name: Kd

Please look up its Kd: `GSDDIRRLV`
≥ 76.9 µM

* * *

Catalogue of pKd readings, one per entry.
# measured on: HLA-B*58:01
# experimental details: IEDB peptide-MHC binding, purified MHC/direct/fluorescence; filed as Kd, often an IC50 or EC50 that approximates it; bounds were set here for any values at or beyond the usual limits of such assays
# particulars: source organism: Giardia lamblia ATCC 50803
A value of pKd is the negative decimal logarithm of a concentration given in moles per litre.

Consider the reported pKd for these sequences:
{"residues": "WSFLEDRVY", "pKd": 6.31}
{"residues": "IASPILFPF", "pKd": 8.52}
{"residues": "QTSTLYDFY", "pKd": 5.42}

Next sequence, pKd to be filled in.
Please look up its pKd: `LASSSYEQF`
7.44

* * *

# measured on: HLA-A*02:50
# experimental details: IEDB peptide-MHC binding, purified MHC/competitive/fluorescence; filed as Kd, often an IC50 or EC50 that approximates it; bounds were set here for any values at or beyond the usual limits of such assays
# particulars: source organism: Brucella abortus S19
measure name: pKd
A value of pKd is the negative decimal logarithm of a concentration given in moles per litre.

Please look up its pKd: `YVDIIGLSV`
8.04
